tested on: replicon cell line AVA5; settings: Table 2; SB 9200 monotherapy
measured endpoint: CC50

IN: Tell me reported CC50 for CO[C@@H]1[C@H](OP(=O)(OC[C@H]2O[C@@H](n3cnc4c(N)ncnc43)C[C@@H]2O)SCOC(=O)OC(C)C)[C@@H](CO)O[C@H]1n1ccc(=O)[nH]c1=O (stereo partly shown) , tested with replicon cell line AVA5.
OUT: > 100 µM

* * *

system: patient derived HCV; assay: microbe, parasite or virus in culture; type: cell-based, hepatitis C virus; conditions: Hepatitis C virus, in Homo sapiens, G3 isolates, patient derived HCV
measured endpoint: IC50 (nM)
Give the value in nM but do not write nM after it.

IN: Tell me reported IC50 for CO[C@@H]1[C@H](OP(=O)(OC[C@H]2O[C@@H](n3cnc4c(N)ncnc43)C[C@@H]2O)SCOC(=O)OC(C)C)[C@@H](CO)O[C@H]1n1ccc(=O)[nH]c1=O (stereo partly shown) , tested with patient derived HCV.
OUT: 35
